# credit: ChEMBL document CHEMBL5518227

Assay: Cmax in 8 hrs fasted cynomolgus monkey assessed as liver blood flow at 3 mg/kg, po measured upto 24 hrs by LC-MS/MS analysis
Type: ADME, organism-based, Macaca fascicularis
Conditions: in vivo
value_kind: Cmax
# include the unit after the value

Fill in the blank: the reported Cmax of COc1cc(N[C@H](C(=O)c2c[nH]c3ccc(OC(F)(F)F)cc23)c2ccc(Cl)cc2OC)cc(S(C)(=O)=O)c1 is ____.
613 ng/mL

====

Assign microsomal CLint to each entry below.
Assay: Metabolic stability in rat liver microsomes assessed as intrinsic clearance preincubated for 5 mins followed by NADPH addition measured upto 60 mins by LC-MS/MS analysis
Format: ADME, Microsome
Details: time < 65 min, read-out: CLH
Answers are plain numbers, in µL/min/mg.

// for each molecule below, give its microsomal CLint
1. COc1cc(NC(C(=O)c2c[nH]c3ccccc23)c2ccc(F)cc2)cc(S(=O)(=O)CCCO)c1 (stereo not given)
2. COc1cc(NC(C(=O)c2c[nH]c3ccccc23)c2ccc(F)cc2)cc(OCCO)c1 (stereo not given)
3. COc1cc(NC(C(=O)c2c[nH]c3ccccc23)c2ccc(F)cc2OC)cc(S(C)(=O)=O)c1 (single isomer, unassigned; (+))
4. COc1cc(NC(C(=O)c2c[nH]c3ccccc23)c2ccc(F)cc2OC)cc(OCCO)c1 (single isomer, unassigned; (+))
5. COc1cc(NC(C(=O)c2c[nH]c3ccccc23)c2ccc(F)cc2)cc(S(C)(=O)=O)c1 (stereo not given)

[66, 24, 15, 24, 16]

====

Assay: Oral bioavailability in CD-1 mouse at 10 mg/kg measured upto 24 hrs by LC-MS/MS analysis
Format: ADME, organism-based
Conditions: in vivo
value_kind: bioavailability (%)
One number for each entry, in %.

Fill in the blank: the reported bioavailability of COc1cc(N[C@H](C(=O)c2c[nH]c3ccc(OC(F)(F)F)cc23)c2ccc(Cl)cc2OC)cc(S(C)(=O)=O)c1 is ____.
108

====

Experiment: Clearance in 8 hrs fasted cynomolgus monkey at 1 mg/kg, iv measured upto 24 hrs by LC-MS/MS analysis
Type: ADME, organism-based, Macaca fascicularis
Details: in vivo
value_kind: clearance (mL/min/kg)
Numbers only, in mL/min/kg.

Fill in the blank: the reported clearance of COc1cc(N[C@H](C(=O)c2c[nH]c3ccc(OC(F)(F)F)cc23)c2ccc(Cl)cc2OC)cc(S(C)(=O)=O)c1 is ____.
2.45

====

Assign half-life to each entry below.
Experiment: Elimination half life in Sprague-Dawley rat at 2.5 mg/kg, iv measured after 24 hrs by LC-MS/MS analysis
Type: ADME, organism-based
Conditions: in vivo, read-out: beta t1/2 (converted)
Numbers only, in h.

A selection of reference data follows.
>>> print(df.to_string())
                                   compound  value
0  COc1cc(N[C@H](C(=O)c2c[nH]c3ccc(OC(F)(F)F)cc23)c2ccc(Cl)cc2OC)cc(S(C)(=O)=O)c1 [MOSNODENVIR]   12.4
1  COc1cc(NC(C(=O)c2c[nH]c3cc(OC)c(C)cc23)c2ccc(F)cc2OCCO)cc(S(C)(=O)=O)c1 (single isomer, unassigned; (+))    4.2
2  COc1cc(NC(C(=O)c2c[nH]c3cc(OC)c(C)cc23)c2ccc(Cl)cc2OCCO)cc(S(C)(=O)=O)c1 (single isomer, unassigned; (+))    4.7
3  COc1cc(NC(C(=O)c2c[nH]c3cc(F)ccc23)c2ccc(F)cc2OCCO)cc(S(C)(=O)=O)c1 (single isomer, unassigned; (+))    3.9

// for each compound below, give its half-life
1. COc1cc(NC(C(=O)c2c[nH]c3cc(F)ccc23)c2ccc(F)cc2OC)cc(S(C)(=O)=O)c1 (configuration not stated)
2. COc1cc(NC(C(=O)c2c[nH]c3cc(OC)c(C)cc23)c2ccc(F)cc2OC)cc(S(C)(=O)=O)c1 (single isomer, unassigned; (+))
3. COc1cc(NC(C(=O)c2c[nH]c3cc(OC)c(C)cc23)c2ccc(Cl)cc2OC)cc(S(C)(=O)=O)c1 (configuration not stated)

[5.3, 5.1, 4.4]
